Ref: PubChem BioAssay (NCI)

List of TGI values.
- Test system: MOLT-4 leukemia
- Protocol description: NCI tumour cell line growth inhibition, 48 h
Note: unit µM is implicit; provide only the numeric part.

Reference set, count: 3
Compound	Unit string	TGI
Nc1c2c(nc3ccccc13)-c1ccccc1CCC2	µM	33
COC1=CC(=O)c2c(O)c3c(c(O)c2C1=O)CC(C)(O)OC3 (centres undefined)	µM	8.68
COC(=O)C1=C(O)C(C(=O)OC)[C@@]2(O)[C@@H](C(=O)OC)C(c3ccccc3C(F)(F)F)C[C@@H]1[C@@H]2C(=O)OC (some centres undefined)	µM	6.97

In the following, a different compound is considered.
Please fill in: TGI reported for NS(=O)(=O)OC[C@H]1O[C@@H](n2cnc3c(N[C@H]4CCc5ccccc54)ncnc32)[C@H](O)[C@@H]1O = 1.99

---

- System: SK-MEL-5 melanoma
- Protocol description: NCI tumour cell line growth inhibition, 48 h
Observation type: TGI

Completed entries (count: 2):
Compound	Test result
CC(C)OCC(O)COc1cc(=O)oc2ccccc12 (stereo unspecified)	> 100 µM
COC(=O)C(=O)C(C(=O)C(=O)Nc1ccc(Cl)cc1Cl)c1nc2ccc(Cl)cc2[nH]c1=O (stereo unspecified)	> 100 µM

Given item O=C(CCCCCn1c2ccccc2c2c3c(c4c5ccccc5[nH]c4c21)C(=O)N(O)C3=O)N1CCOCC1 , the value recorded as its TGI is 3.06 µM

Noted for COc1cc(OC)c(Oc2cccc(OC)c2OC)c(OC)c1 : its TGI reads > 100 µM

C=CC[n+]1c(/C=C2\Sc3ccccc3N2C)sc(-c2ccccc2)c1-c1ccccc1 yielded TGI of 0.32 µM

Kindly note the recorded TGI for O=C1NC(N2CCOCC2)=N/C1=C\c1ccccc1 , which is > 100 µM

Field TGI (entry COc1ccc(NC(=O)c2cc(NC(=O)/C=C/c3ccccc3)c(OC)c(OC)c2)cc1 ) reads > 100 µM

In plain terms, CC([C@H]1CCC2C3CCC4C(=O)C(NC=O)=CC[C@]4(C)C3CC[C@@]21C)N(C)C (stereo partly specified) has a documented TGI of 3.04 µM

The reported TGI of the compound COc1cc(/C=C/C(=O)OC[C@]23O[C@H]2[C@@H](OC2OC(C)C(O)C(O)C2O)C2C=CO[C@@H](OC4OC(CO)C(O)C(O)C4O)C23)ccc1O (stereo partly specified) was > 100 µM

response.value for Nc1ccc(Cl)cc1.Nc1ccc(Cl)cc1.Nc1ccc(Cl)cc1.O=C([O-])C(=O)[O-].O=C([O-])C(=O)[O-].[H+].[Ru+5] (field: TGI) = > 100 µM

For reference, reported TGI for CCCCc1ccc(Nc2nc(N)c3[nH]cnc3n2)cc1 stands at 30.9 µM

---

Measured TGI accompanies every entry in the list below.
- Test system: LOX IMVI melanoma
- Protocol description: NCI tumour cell line growth inhibition, 48 h
Quick note: give the figure in µM, leave out the unit.

Reported TGI for COC(=O)c1ccc2c(c1)CC1(C2)Cc2ccc3c(c2C1)CCC3 (stereo not given) was 60.7

# compound Cc1cc(CC(O)(C(F)(F)F)C(F)(F)F)cc(CC(O)(C(F)(F)F)C(F)(F)F)n1 ; its TGI = 5.79

Item: CCOC(=O)C(C(N)=O)c1nc2cc([N+](=O)[O-])ccc2nc1/C=C(\O)c1ccc(C)cc1 (stereo not given) | TGI: 57.4

Entry c1ccc2c3c(c(N4CCNCC4)nc2c1)CCCC3 , TGI reported as 27.2

---

- Tested on: SNB-78 CNS
- Protocol description: NCI tumour cell line growth inhibition, 48 h
Parameter: TGI. Scope: all listed entries.

Below are worked cases with known answers.
Compound	System	TGI
CC(=O)OCC1OC(n2c(-c3ccc(N)cc3)cc(-c3ccco3)c(C#N)c2=O)C(OC(C)=O)C(OC(C)=O)C1OC(C)=O (stereo not drawn)	SNB-78 CNS	> 50 µM
COC(=O)CC[C@@H](NC(=O)C(C)NC(=O)COC1C(O)C(COC(=O)CCCCCCCCCCNC(=O)c2ccc([N+](=O)[O-])c3[nH]c4cc(Br)ccc4c(=O)c23)OC(OCc2ccccc2)C1NC(C)=O)C(N)=O (stereo partly drawn)	SNB-78 CNS	> 100 µM
COc1ncn(C2C=C(CO)C(O)C2O)c(=O)n1 (stereo not drawn)	SNB-78 CNS	> 100 µM
Cn1c(=O)c(C2c3ccccc3Oc3c2c(=O)n(C)c2ccccc32)c(O)c2ccccc21 (stereo not drawn)	SNB-78 CNS	> 100 µM
CCC(C)CNC1=C(NC(C)=O)C(=O)c2ccccc2C1=O (stereo not drawn)	SNB-78 CNS	> 100 µM

Per the reported SNB-78 CNS data, COC1=C(C(=O)OC(C)(C)C)C23CCCCC2(C(C(=O)OC(C)(C)C)=C(OC)C3C(=O)OC(C)(C)C)C1C(=O)OC(C)(C)C (stereo not drawn) has TGI of > 100 µM

Here N.N.NCCCCN.O=C([O-])CCl.O=C([O-])CCl.O=C([O-])CCl.O=C([O-])CCl.[Pt+4].[Pt+4] was tested on SNB-78 CNS, and its TGI came to > 50 µM

N#CC1(Cc2ccccc2Cl)c2ccccc2C=CN1C(=O)c1ccccc1 (stereo not drawn) on SNB-78 CNS gives TGI = > 100 µM

---

- System: MOLT-4 leukemia
- Protocol description: NCI tumour cell line growth inhibition, 48 h; in the data active = GI50 below about 0.43 µM; inactive = the rest
Your response should consist of one outcome taken from active, inactive

These recorded examples may help you get a feel for the data.
In [3]: df
Out[3]:
                                   compound  class_label
0  CC([C@H]1CCC2C3CCC4C(=O)C(NC=O)=CC[C@]4(C)C3CC[C@@]21C)N(C)C (stereo not given in full)     inactive
1     O=c1cc(N2CCOCC2)oc2c(-c3ccccc3)cccc12     inactive
2  NS(=O)(=O)OC[C@H]1O[C@@H](n2cnc3c(N[C@H]4CCc5ccccc54)ncnc32)[C@H](O)[C@@H]1O       active
3  O=C1/C(=C/c2ccc(F)cc2)CN(Cc2cn(CCNc3ccnc4cc(Cl)ccc34)nn2)C/C1=C\c1ccc(F)cc1     inactive
4  O=C(/C=C/c1ccco1)c1ccc(Nc2ccnc3cc(Cl)ccc23)cc1     inactive
5  COc1ccc(C2CC(c3cccc(Nc4ccnc5cc(Cl)ccc45)c3)=NN2c2ccccc2)cc1 (stereo not given)     inactive
6              O=C1C=Cc2cc3ccccc3c3cccc1c23     inactive
7  Nc1nc(Cl)cc2c1ncn2C1OC(CO)C(O)C1O (stereo not given)     inactive

Ask: I would be grateful if you could indicate the recorded call for N#CC1=C(N)Oc2c(sc3c(F)cccc23)C1c1ccc(Cl)cc1 (stereo not given) .
Result: inactive

Ask: Write down the call the test reported for this compound. Item: CC(=N\O)/C(C)=N/O.CC(=N\O)/C(C)=N/O.[Pd]
Result: inactive

---

- Tested on: NCI-H522 lung
- Protocol description: NCI tumour cell line growth inhibition, 48 h
// reported TGI for each item listed
Write down the numeric answer in µM and omit the unit.

Look over these answered cases.
Compound	TGI, µM
CCOC(=O)C(=C=Cc1cccs1)C(=O)c1ccccc1	28.3
COc1ccc(NC(=O)CC(=O)n2nc(-c3ccccc3)c(N=Nc3ccc(C)cc3)c2-c2ccccc2)cc1	48.3
COc1ccc(C2CC(c3cccc(Nc4ccnc5cc(Cl)ccc45)c3)=NN2c2ccccc2)cc1 (stereo unspecified)	13.8
COC(=O)c1ccc2c(c1)CC1(C2)Cc2ccc3c(c2C1)CCC3 (stereo unspecified)	66.8
O=C(NCCc1ccc(F)cc1)c1cc(/C=C/c2cc(O)ccc2O)ccc1O	4.88

Lab note: C(=C/c1ccc2nc(-c3ccc(/C=C/C=N/NC4=NCCCN4)cc3)cn2c1)/C=N/NC1=NCCCN1 gave TGI of 34.3

Sure, the documented TGI for N#CC1=C(N)Oc2c(sc3c(F)cccc23)C1c1ccc(Cl)cc1 (stereo unspecified) is 11.7

Entry Nc1c2c(nc3ccccc13)-c1ccccc1CCC2 ; TGI = 32.4

Reported TGI of O=C(O)/C=C/C(=O)Nc1cccc2c1-c1ccccc1C2=O : 26.3

---

- Tested on: UACC-62 melanoma
- Protocol description: NCI tumour cell line growth inhibition, 48 h; in the data active means GI50 below about 0.43 µM; inactive means the rest
Assign a class; possible classes are active, inactive

Some solved cases for reference:
                                   compound  class_label
0  NS(=O)(=O)OC[C@H]1O[C@@H](n2cnc3c(N[C@H]4CCc5ccccc54)ncnc32)[C@H](O)[C@@H]1O       active
1  COc1cc(OC)cc(-c2n[nH]nc2-c2ccc3c(c2)OCO3)c1     inactive
2  COc1ccc(CNCCN2C(=O)c3ccc4c5c(ccc(c35)C2=O)C(=O)N(CCNCc2ccc(OC)cc2)C4=O)cc1       active
3     O=c1cc(N2CCOCC2)oc2c(-c3ccccc3)cccc12     inactive

Ask: # fetch the recorded call for Nc1nc(Cl)cc2c1ncn2C1OC(CO)C(O)C1O (centres undefined) here
Result: inactive

Ask: Per the assay record, what outcome was assigned to C=C1c2c(C)nn(-c3ccccc3)c2N(C)C23C[C@@H]1C1(C)c4c(C)nn(-c5ccccc5)c4N(C)C(C)(C[C@H]12)C3 (some centres undefined) ?
Result: inactive

Ask: How was COc1cc2c(cc1OC)[C@@H]1[C@H](C2=O)c2ccc([N+](=O)[O-])cc2C(=O)N1CCCBr classified in this test?
Result: active

Ask: What was the test verdict on O=C1C=Cc2cc3ccccc3c3cccc1c23 ?
Result: inactive

Ask: For O=C(NCCc1ccccc1)C(c1csc2ccccc12)N(C(=O)CCl)c1ccc(-c2cnco2)cc1 (centres undefined) , what call appears in the results of this test?
Result: inactive

Ask: # lookup: test call for COc1cc(C2CC(c3ccc(C)cc3)=NN2C(C)=O)ccc1Oc1ccnc2cc(Cl)ccc12 (centres undefined)
Result: inactive

Ask: Given O=C(CCCCCn1c2ccccc2c2c3c(c4c5ccccc5[nH]c4c21)C(=O)N(O)C3=O)N1CCOCC1 , state the outcome it received in this test.
Result: inactive

Ask: // param item: Cc1cc(C)c2nc(Nc3nc(C)c(C)c(=O)[nH]3)nc(C)c2c1 ; yields the recorded call
Result: inactive

Ask: # outcome recorded in this test, key = CCSc1sc(-c2ccc(C)cc2)nc1[P+](c1ccccc1)(c1ccccc1)c1ccccc1
Result: active

Ask: Can you look up the reported call for COc1ccc(-c2ccc(/C=N/n3cnn(CN4CCN(C)CC4)c3=S)o2)c([N+](=O)[O-])c1 for me?
Result: inactive
